The following molecules each carry a recorded IC50 for Acetylcholinesterase (E.C.3.1.1.7, from electric eel) (Electrophorus electricus).
Numbers only here, please. The scale is µM.

// sample `Cc1ccc2nc(Cl)c(C=NNC(=S)Nc3ccccc3)cc2c1` , its IC50 was 49.3

// sample `S=C(NN=Cc1cc2ccc(Cl)cc2nc1Cl)Nc1ccccc1` , its IC50 was 47.1

// sample `COc1ccc2cc(C=NNC(=S)NCCN3CCOCC3)c(Cl)nc2c1` , its IC50 was 5.53

// sample `Cc1ccc2cc(C=NNC(=S)Nc3ccccc3)c(Cl)nc2c1` , its IC50 was 46.5

// sample `COc1ccc2nc(Cl)c(C=NNC(=S)Nc3ccccc3)cc2c1` , its IC50 was 34.2

// sample `S=C(NN=Cc1cc2ccccc2nc1Cl)Nc1ccccc1` , its IC50 was 23.2

* * *

Task for the reader: assign each of the following molecules its reported IC50.
# Tested System: Acetylcholinesterase (E.C.3.1.1.7, from electric eel) (Electrophorus electricus, UniProt O42275)
# Sequence (O42275 24-633): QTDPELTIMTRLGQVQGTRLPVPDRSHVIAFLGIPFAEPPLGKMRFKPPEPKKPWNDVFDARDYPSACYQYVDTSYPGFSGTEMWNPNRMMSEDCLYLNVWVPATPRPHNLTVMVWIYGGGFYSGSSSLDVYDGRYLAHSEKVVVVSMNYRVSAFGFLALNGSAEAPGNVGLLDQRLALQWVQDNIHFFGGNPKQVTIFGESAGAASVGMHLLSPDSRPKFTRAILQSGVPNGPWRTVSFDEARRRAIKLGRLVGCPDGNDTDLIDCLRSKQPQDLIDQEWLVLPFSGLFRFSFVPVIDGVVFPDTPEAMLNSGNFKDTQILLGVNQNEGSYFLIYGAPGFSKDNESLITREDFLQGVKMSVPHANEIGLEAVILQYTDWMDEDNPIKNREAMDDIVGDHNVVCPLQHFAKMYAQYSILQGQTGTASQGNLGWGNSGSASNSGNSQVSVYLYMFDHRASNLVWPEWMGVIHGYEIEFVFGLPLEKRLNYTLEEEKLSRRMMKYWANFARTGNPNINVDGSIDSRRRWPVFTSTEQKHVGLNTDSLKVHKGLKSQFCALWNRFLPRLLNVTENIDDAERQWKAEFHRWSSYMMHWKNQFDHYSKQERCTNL
Numbers only here, please. The scale is µM.

// sample `COc1ccc2nc(Cl)c(C=NNC(=S)NCCN3CCOCC3)cc2c1` , its IC50 was 0.12

// sample `S=C(NCCN1CCOCC1)NN=Cc1cc2ccccc2nc1Cl` , its IC50 was 2.95

// sample `S=C(NCCN1CCOCC1)NN=Cc1cc2ccc(Cl)cc2nc1Cl` , its IC50 was 10.5

// sample `COc1ccc2cc(C=NNC(=S)Nc3ccccc3)c(Cl)nc2c1` , its IC50 was 60.9

// sample `Cc1ccc2cc(C=NNC(=S)NCCN3CCOCC3)c(Cl)nc2c1` , its IC50 was 0.55

* * *

# Tested System: butyrylcholinesterase (E.C. 3.1.1.8, from horse serum) (Equus caballus, UniProt P81908)
# Sequence (P81908 whole entry): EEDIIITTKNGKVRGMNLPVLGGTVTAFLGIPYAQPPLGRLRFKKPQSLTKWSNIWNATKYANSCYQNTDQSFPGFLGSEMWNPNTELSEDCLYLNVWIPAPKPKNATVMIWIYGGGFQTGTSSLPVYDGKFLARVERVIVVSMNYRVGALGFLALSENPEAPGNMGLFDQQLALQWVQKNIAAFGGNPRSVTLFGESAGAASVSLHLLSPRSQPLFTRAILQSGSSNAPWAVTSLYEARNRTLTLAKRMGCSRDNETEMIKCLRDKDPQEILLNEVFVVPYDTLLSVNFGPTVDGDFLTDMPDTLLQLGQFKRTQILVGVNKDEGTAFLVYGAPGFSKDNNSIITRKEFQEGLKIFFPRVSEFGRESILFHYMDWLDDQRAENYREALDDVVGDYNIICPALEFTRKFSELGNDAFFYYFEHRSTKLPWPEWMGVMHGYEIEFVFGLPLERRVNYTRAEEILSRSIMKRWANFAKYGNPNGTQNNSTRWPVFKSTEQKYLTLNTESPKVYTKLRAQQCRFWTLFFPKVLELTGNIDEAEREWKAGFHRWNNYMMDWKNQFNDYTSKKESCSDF
# Assay Remarks: In vitro butyrylcholinesterase inhibition assay (Ellman's method)
# Format: biochemical
# Condition Set: horse serum BChE, pH 7.7, 37 °C, triplicate; read-out: Butyrylcholinesterse (BChE) IC50 ± SEM
Attribute Measured: pIC50
# reply with the number alone; pIC50 is -log10 of concentration in mol/L

// sample `COc1ccc2nc(Cl)c(C=NNC(=S)Nc3ccccc3)cc2c1` , its pIC50 was 4.95

* * *

# Tested System: butyrylcholinesterase (E.C. 3.1.1.8, from horse serum) (Equus caballus, UniProt P81908)
# Assay Remarks: In vitro butyrylcholinesterase inhibition assay (Ellman's method)
# Type: biochemical
# Condition Set: compounds with <50% inhibition
Please assign a class to every record based on measured Butyrylcholinesterse (BChE) %inhibition, with ranges low-valued = under 3%, mid-valued = from 3% up to 20%, high-valued = 20% and over

Query block: Which class holds `Cc1ccc2cc(C=NNC(=S)NCCN3CCOCC3)c(Cl)nc2c1` ?
Result block: low-valued

Query block: Which class holds `Cc1ccc2nc(Cl)c(C=NNC(=S)Nc3ccccc3)cc2c1` ?
Result block: high-valued

Query block: Which class holds `S=C(NN=Cc1cc2ccccc2nc1Cl)Nc1ccccc1` ?
Result block: mid-valued

Query block: Which class holds `S=C(NCCN1CCOCC1)NN=Cc1cc2ccc(Cl)cc2nc1Cl` ?
Result block: low-valued

Query block: Which class holds `Cc1ccc2cc(C=NNC(=S)Nc3ccccc3)c(Cl)nc2c1` ?
Result block: mid-valued

Query block: Which class holds `COc1ccc2cc(C=NNC(=S)NCCN3CCOCC3)c(Cl)nc2c1` ?
Result block: low-valued

Query block: Which class holds `COc1ccc2nc(Cl)c(C=NNC(=S)NCCN3CCOCC3)cc2c1` ?
Result block: mid-valued

Query block: Which class holds `COc1ccc2cc(C=NNC(=S)Nc3ccccc3)c(Cl)nc2c1` ?
Result block: high-valued

Query block: Which class holds `S=C(NCCN1CCOCC1)NN=Cc1cc2ccccc2nc1Cl` ?
Result block: mid-valued
